- System: 454973-116-R2-J3-PDC spheroids, viability, % test/control;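 also: spheroids exposed to compounds for seven days; 100% = DMSO vehicle control viability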
- protocol_details: Anticancer human tumor 454973-116-R2-J3-PDC patient-derived pancreatic carcinoma cell line growth inhibition [GQUAD]
- experimental_conditions: second compound 0.1 µM; first compound 0.1 µM; hits give low values; spheroids with HUVEC and MSC
assay_endpoint: viability, T/C (%)
Give the value in % but do not write % after it.

Below, each entry is followed by its recorded viability, T/C result.
• COc1ccc([C@@H](O)c2cc(-c3ncnc4cc(N5CCOCC5)ccc34)c(F)cc2Cl)nn1 + CN(C)c1ccc(Nc2c3ccc(NC(=O)CCN4CCCC4)cc3nc3cc(NC(=O)CCN4CCCC4)ccc23)cc1 = 98.5
• Nc1ccn(C2OC(CO)C(O)C2(F)F)c(=O)n1 (stereo unspecified) + CN(C)c1ccc(Nc2c3ccc(NC(=O)CCN4CCCC4)cc3nc3cc(NC(=O)CCN4CCCC4)ccc23)cc1 = 13.5
• C#Cc1c(F)ccc2cc(O)cc(-c3ncc4c(N5CC6CCC(C5)N6)nc(OCC56CCCN5CC(F)C6)nc4c3F)c12 (stereo unspecified) + CN(C)c1ccc(Nc2c3ccc(NC(=O)CCN4CCCC4)cc3nc3cc(NC(=O)CCN4CCCC4)ccc23)cc1 = 41.9
• Nc1ccn(C2OC(CO)C(O)C2(F)F)c(=O)n1 (stereo unspecified) + Cc1[nH]c2ccc(F)cc2c1-c1nc2c3cccnc3c3ncccc3c2[nH]1 = 13.9

# input Could you tell me which viability, T/C is on file for C=CCn1c(=O)c2cnc(Nc3ccc(N4CCN(C)CC4)cc3)nc2n1-c1cccc(C(C)(C)O)n1 + Cc1cnc(CNC(=O)c2c(=O)c3ccc(N4CCCN(C)CC4)nc3n3c2sc2ccccc23)cn1 ?
# output 53.6

# input Same for COc1cccc2c1C(=O)c1c(O)c3c(c(O)c1C2=O)CC(O)(C(=O)CO)CC3OC1CC(N)C(O)C(C)O1 (stereo unspecified) + Cc1[nH]c2ccc(F)cc2c1-c1nc2c3cccnc3c3ncccc3c2[nH]1
# output 69.8

# input Same for Cc1cccc(N(C)C(=O)C2C(O)CCN2c2nc(C)cc(C(F)(F)F)c2C#N)c1 (stereo unspecified) + Cc1[nH]c2ccc(F)cc2c1-c1nc2c3cccnc3c3ncccc3c2[nH]1
# output 100

# input Same for CC1COCCN1c1cc(-c2ccnn2C)c2ccnc(-c3ccn[nH]3)c2n1 (stereo unspecified) + Cc1[nH]c2ccc(F)cc2c1-c1nc2c3cccnc3c3ncccc3c2[nH]1
# output 67.1

# input Same for COc1ncnc(C2CC2)c1-c1ncc2cnn(Cc3ccc(-c4nc(C(F)(F)F)cn4C(C)C)cc3)c2n1 + Cc1cnc(CNC(=O)c2c(=O)c3ccc(N4CCCN(C)CC4)nc3n3c2sc2ccccc23)cn1
# output 69.4

# input Same for COc1ncnc(C2CC2)c1-c1ncc2cnn(Cc3ccc(-c4nc(C(F)(F)F)cn4C(C)C)cc3)c2n1 + Cc1[nH]c2ccc(F)cc2c1-c1nc2c3cccnc3c3ncccc3c2[nH]1
# output 102

# input Same for C#Cc1c(F)ccc2cc(O)cc(-c3ncc4c(N5CC6CCC(C5)N6)nc(OCC56CCCN5CC(F)C6)nc4c3F)c12 (stereo unspecified) + Cc1[nH]c2ccc(F)cc2c1-c1nc2c3cccnc3c3ncccc3c2[nH]1
# output 43.4

The measurements presented in this section are drawn from PubChem BioAssay AID2060508.
